# Measured On: T1, C-terminal biotinylated human Hepcidin-25 (human, not fully specified; biotinylated via a Lysine residue coupled to the C-terminus via a Mini-PEG linker)
# T1 construct: Bought from Bachem AG; Captured on plates via Neutravidin; also called C-terminal biotinylated hepcidin; C-terminal biotinylated hHepcidin
# T1 peptide: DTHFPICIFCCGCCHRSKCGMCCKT
# Measurement Notes: direct ELISA, biotinylated hepcidin captured via Neutravidin, mutein titrated
Item-by-item account of Kd
Report the value in nM with no unit label.

lipocalin mutein of SEQ ID NO: 13, linked to PEG40 (designed binder, branched 40k PEG-maleimide on the free Cys at position 87, hNGAL mutein with Ser 87 back-mutated to Cys and PEGylated there) QDSTSDLIPAPPLSKVPLQQNFQDNQFHGKWYVVGLAGNEVLREDKDPMKMWATIYELKEDKSYNVTIVMPLAEKCEYLFQTFVPGCQPGEFTLGGIKSGPGRTSGLVRVVSTNYNQHAMVFFKVVWQNREVFWVTLYGRTKELTSELKENFIRFSKSLGLPENHIVFPVPIDQCIDG: 3.49

Now for the binder whose Kd we want.
Problem: Write down Kd measured for item lipocalin mutein of SEQ ID NO: 2 (designed binder, also called Lcn2 mutein) QDSTSDLIPAPPLSKVPLQQNFQDNQFHGKWYVVGTAGNSILREDKDPQKMWATIYELKEDKSYNVTRVFFEGKKCRYVIETFVPGSQPGEFTLGKIKSAPGGTSILVRVVSTNYNQHAMVFFKVVWQNRELFWITLYGRTKELTSELKENFIRFSKSLGLPENHIVFPVPIDQCIDG
Solution: 2.12

From: patent US20170369542A1
